system: MCF10A; test: percent viability (nuclei count relative to siNT); higher = more viable cells; conditions: 20 nM; 72 h
Below is a list of entries, each paired with its recorded percent viability value.
Response body: numeric value in %, unit text excluded.

Supply recorded percent viability for GGGGCUGGGCGCGCGCC [hsa-miR-4492] here.
33.5

Give percent viability for UCUCUCUGACUCCAUGGCA [hsa-miR-6817-3p]
39.3

Annotate the sequence CGGGCGUGGUGGUGGGGG [hsa-miR-1268a] with its measured percent viability.
96.6

Specify reported percent viability for the sequence shown: CACUGUUUCACCACUGGCUCUU [hsa-miR-4676-3p]
49.2
